Target: 15N-S100A10-AnxA2Nter fusion protein (Homo sapiens)
Peptide text beside a SMILES is read from it.
readout-label: Kd (mM)
Give the value in mM but do not write mM after it.

Lab note: compound CC(=O)N[C@@H](CS)C(=O)N[C@@H](Cc1ccccc1)C(=O)N[C@@H](CC(C)C)C(=O)N[C@@H](Cc1c[nH]cn1)C(=O)N[C@@H](Cc1ccccc1)C(=O)NCC(=O)N[C@@H](CCCCN)C(=O)N[C@@H](CCC(=O)O)C(=O)NCC(=O)N[C@@H](CCC(=O)O)C(=O)N[C@@H](CO)C(=O)NCC(=O)N1CCC[C@H]1C(=O)N[C@@H](CC(C)C)C(=O)N[C@@H](CCC(N)=O)C(=O)O [Ac-SW-TS/EE] (Ac-CFLHFGKEGESGPLQ-OH) tested on 15N-S100A10-AnxA2Nter fusion protein (Homo sapiens); recorded Kd was 3.53
